test system: PRMT1 (protein arginine N-methyltransferase 1); assay: small molecules binding arginine methyltransferase PRMT1 – biochemical, small-molecule microarray, 635 nm fluorescence, primary screen (AID 1088); conditions: higher = more signal;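 further: binding of Prmt1 protein to compounds spotted on small-molecule microarray slides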
composite z-score below 0.04 gives NO; composite z-score at or above it gives YES.

Illustrative cases are given below, each with its answer.
Is it the case that COC(=O)[C@@]1(Cc2ccc(OC)cc2)[C@H]2c3cc(C(=O)N4CCCC4)n(CCc4c[nH]c5ccc(O)cc45)c3C[C@H]2CN1C(=O)c1ccccc1 has composite z-score reaching or exceeding 0.04? YES

Is it the case that C#CCN(Cc1ccccc1Br)[C@H](/C=C/c1ccccc1)[C@@H](O)Cc1ccccc1 has composite z-score reaching or exceeding 0.04? NO

Is it the case that O=C(Cc1ccccc1)[C@H]1C2C=CCCC(c3ccccc3)=C2CN1Cc1ccccc1 (stereo not given in full) has composite z-score reaching or exceeding 0.04? YES

Is it the case that CC(CO)N1C(=O)[C@@H]2[C@H]3C(=O)OCC=C[C@H]3OC23C=CCN(Cn2nnc4ccccc42)C(=O)[C@@H]13 (stereo not given in full) has composite z-score reaching or exceeding 0.04? NO

Is it the case that C=CCOC(=O)[C@@]1(Cc2ccccc2)C[C@H]2CO[C@H](c3ccc(OC)cc3)N2C1=O has composite z-score reaching or exceeding 0.04? YES

Now examine the next entry.
Is it the case that COCCOC(=O)N1C(=O)[C@@]2(c3cc(C#CCCO)ccc31)[C@H](c1ccc(OCCO)cc1)N1[C@H](c3ccccc3)[C@H](c3ccccc3)OC(=O)[C@H]1[C@@H]2C(=O)Nc1nc2ccccc2s1 has composite z-score reaching or exceeding 0.04? YES

----------
assay: probe aLefty1 binding on compound microarray – biochemical, small-molecule microarray, 635/667 nm fluorescence, primary screen (AID 1153); conditions: higher = more signal;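 further: score merges spot fluorescence with signal-to-noise ratio from the scanned slide images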
List of composite z-score values.
Answer with a bare number; do not write a unit.

Report composite z-score for CC1CC/C=C\[C@H]2OC34C=CCN(C(C)(C)C)C(=O)[C@H]3N(CCCCCO)C(=O)[C@@H]4C2C(=O)O1 (some centres not stated) please. -0.0984

Report composite z-score for CO[C@H]1O[C@H](CO)[C@@H](OC(=O)Nc2ccc(Br)cc2)[C@@H]2OC(=O)[C@@H](Cc3ccccc3)C/C=C/C[C@H](Cc3ccccc3)C(=O)O[C@@H]12 please. 0.057

Report composite z-score for CCOC(=O)C[C@H]1[C@H](OC(=O)c2ccccc2-c2ccccc2)[C@@H](NC(=O)c2ccc3ccccc3c2)c2cc(OCCCO)ccc2N1C(=O)c1ccccc1 please. -0.152

Report composite z-score for [N-]=[N+]=Nc1ccccc1[C@H]1OC(c2ccc(OCCCO)cc2)=N[C@@]1(Cc1ccccc1)C(=O)NCCN1CCOCC1 please. 0.31

Report composite z-score for CCCC=C(CCC)[C@@H](NC(=O)C(C)(C)C)c1ccc(C(=O)OC)cc1 please. 0.666

Report composite z-score for N[C@@H](Cc1ccccc1)C(=O)NCc1cn(Cc2ccccc2)nn1 please. 0.397

Report composite z-score for CCCC[C@@H](O)C1=C(COc2ccccc2)C[C@H]2C(=O)N(Cc3ccccc3)C(=O)[C@H]2[C@H]1CO please. -0.0564

Report composite z-score for C=C(/C(=C/C[C@H](OC(=O)c1ccncc1)c1ccc(CO)o1)c1cnc2ccccc2c1)C(C)C please. 0.0844

More entries:
Report composite z-score for Cc1ccc(N2C(=O)c3ccccc3[C@@H](C(=O)NCCCN(C)C)[C@@H]2c2ccc(CO)cc2)nc1 please. -0.724

Report composite z-score for C=CCC(OC(C)=O)[C@@H]1[C@@H](N(Cc2cc3ccccc3o2)C(=O)Cc2ccc(F)cc2)c2cc(OCCCO)ccc2N1C(=O)Cc1ccc2ccccc2c1 (some centres not stated) please. 0.051

Report composite z-score for COc1cc2c(cc1O)C(C1CC1)N(C)CC2 (configuration not stated) please. -0.0538

Report composite z-score for CCN(CC)c1ccc(N2CC=CC34O[C@@H]5/C=C\CCCOC(=O)C5[C@H]3C(=O)N(C(C)CO)[C@@H]4C2=O)cc1 (some centres not stated) please. -0.0814

----------
tested on: Inhibin beta A chain (activin A); experiment: small molecules binding activin A – biochemical, small-molecule microarray, 635 nm fluorescence scan, primary screen (AID 1107); conditions: INHBA, higher = more signal;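 further: mouse activin A protein probed at 4.33 µg/mL on printed slides; score merges bound-protein fluorescence near 667 nm with spot signal-to-noise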
composite z-score below 0.2 gives false; composite z-score at or above it gives true.

Is it the case that Cc1ccc(S[C@]2(C(=O)NCc3ccccc3)CC(=O)N(C3CCCCC3)[C@@H]2c2ccc(CO)cc2I)cc1 has composite z-score reaching or exceeding 0.2? false

Is it the case that CCCCC(CC)C(O)C1C=CC2C(=O)N(c3ccccc3)C(=O)C2N1Nc1ccccc1F (stereo not given) has composite z-score reaching or exceeding 0.2? true

Is it the case that CCOC(=O)C[C@H]1[C@H](OC(=O)Cc2ccc3c(c2)OCO3)[C@@H](NC(=O)C2CCCCC2)c2cc(OCCCO)ccc2N1C(=O)c1ccccc1 has composite z-score reaching or exceeding 0.2? false

Is it the case that NCCCCCNC(=O)[C@@H]1C[C@@H]2C(=O)N[C@@H](CCCCN)C(=O)N2[C@@H]1c1ccc(O)cc1 has composite z-score reaching or exceeding 0.2? true

Now examine the next entry.
Is it the case that COc1cc2c(cc1O)C(c1ccc(CN3CCCC3)cc1)N(Cc1cc3c(cc1Br)OCO3)CC2 (stereo not given) has composite z-score reaching or exceeding 0.2? true

----------
target: Concanavalin-A (Canavalia ensiformis); assay: compounds binding concanavalin A lectin – biochemical, small-molecule microarray, Alexa647 label, 635 nm, artefact control for SMM control protein annotation, primary screen (AID 1127); conditions: ConA-A647 binding fluorescence, higher = more signal;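 further: z combines 667 nm emission intensity with signal-to-noise across three replicate slides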
List of composite z-score values.
Answer with a bare number; do not write a unit.

See these solved cases before continuing.
Under Concanavalin-A (Canavalia ensiformis): composite z-score value of CO[C@H]1O[C@H](CO)[C@@H](OC(=O)CCc2ccccc2)[C@@H]2OC(=O)[C@@H](Cc3ccccc3)C/C=C/C[C@H](Cc3ccccc3)C(=O)O[C@@H]12 ? 0.6

Under Concanavalin-A (Canavalia ensiformis): composite z-score value of CC(C)NC(=O)[C@@]1(c2ccc([N+](=O)[O-])cc2)CC(=O)N(C2CCCCC2)[C@@H]1c1ccc(CO)cc1 ? 1.02

Under Concanavalin-A (Canavalia ensiformis): composite z-score value of O=C1N(Cc2ccccc2)c2ccccc2C[C@]12N=C(c1ccc(OCCCO)cc1)O[C@@H]2c1ccccc1 ? 1.02

Under Concanavalin-A (Canavalia ensiformis): composite z-score value of Cc1ccc(S[C@]2(C(=O)O)CC(=O)N(C3CCCCC3)[C@@H]2c2ccc(CO)cc2I)cc1 ? 1.02

Kindly review the next compound as well.
Under Concanavalin-A (Canavalia ensiformis): composite z-score value of COc1ccc([C@H]2OC[C@@H]3C[C@H](Cc4ccccc4)C(=O)N32)cc1 ? 0.512

----------
target: Dihydroorotate dehydrogenase (quinone), mitochondrial (Plasmodium falciparum (isolate 3D7)) (UniProt Q08210); assay: inhibition of P. falciparum DHODH – biochemical, C-terminal His tag, absorbance 600 nm, primary screen (AID 1175); settings: PfDHODH enzyme, DCIP absorbance 600 nm; higher = more signal, called active from +8 up or from −8 down;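 further: recombinant parasite enzyme with a five histidine tag at its C terminus; test concentration not given here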
Sequence (Q08210 whole entry, looked up): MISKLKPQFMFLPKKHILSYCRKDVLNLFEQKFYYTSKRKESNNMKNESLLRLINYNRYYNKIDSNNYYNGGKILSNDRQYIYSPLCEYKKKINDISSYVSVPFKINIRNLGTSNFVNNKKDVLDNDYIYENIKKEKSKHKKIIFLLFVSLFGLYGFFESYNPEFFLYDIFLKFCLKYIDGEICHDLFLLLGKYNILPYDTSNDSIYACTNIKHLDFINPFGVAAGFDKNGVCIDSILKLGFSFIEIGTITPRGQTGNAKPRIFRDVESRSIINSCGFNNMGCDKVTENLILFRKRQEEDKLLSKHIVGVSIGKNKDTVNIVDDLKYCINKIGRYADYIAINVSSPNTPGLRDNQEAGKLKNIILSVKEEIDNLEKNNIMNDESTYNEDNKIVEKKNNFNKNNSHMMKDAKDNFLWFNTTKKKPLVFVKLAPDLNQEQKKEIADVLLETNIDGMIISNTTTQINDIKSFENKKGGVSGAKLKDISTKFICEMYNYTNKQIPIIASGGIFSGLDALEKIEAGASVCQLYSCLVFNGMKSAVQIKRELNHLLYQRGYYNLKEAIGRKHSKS
measuredAttribute: composite z-score
Answer with a bare number; do not write a unit.

Report composite z-score for NCCCCCNC(=O)[C@@H]1C[C@@H]2C(=O)N[C@@H](CCCCN)C(=O)N2[C@@H]1c1ccc(O)cc1 please. 0.0173

Report composite z-score for O=C1O[C@H](c2ccccc2)[C@H](c2ccccc2)N2[C@H]1[C@@H](C(=O)O)[C@]1(C(=O)Nc3ccc(C#CCCO)cc31)[C@H]2c1ccccc1OCCO please. -0.408

Report composite z-score for CN1C2C=C(CCCO)C(C3C(=O)N(C(N)=O)C(=O)C32)C1C1CC1 (stereo not drawn) please. -0.884

Report composite z-score for COc1ccc([Si](C)(C)[C@H]2[C@H](CC(=O)N3Cc4ccccc4C[C@H]3CO)O[C@@]3(C(=O)N(Cc4ccc(N5CCOC5=O)cc4)c4ccccc43)[C@@H]2C)cc1 please. -1.03

Report composite z-score for C=CCC(OC(C)=O)[C@@H]1[C@@H](N(Cc2ccc(-c3ccccc3)cc2)C(=O)c2ccc(-c3ccccc3)cc2)c2cc(OCCCO)ccc2N1C(=O)c1ccc2ccccc2c1 (stereo partly drawn) please. -0.746

Report composite z-score for O=C1C[C@]2(c3ccc([N+](=O)[O-])cc3)C(=O)N(C3CC3)c3cc(CO)ccc3[C@H]2N1CC12CC3CC(CC(C3)C1)C2 please. -3.84

More entries:
Report composite z-score for CCCCCN1CC=CC23O[C@@H]4/C=C\CCCOC(=O)C4[C@H]2C(=O)N(C(C)CO)[C@@H]3C1=O (stereo partly drawn) please. -0.298

Report composite z-score for CC(C)N1C(=O)C[C@@](C(=O)O)(c2ccc([N+](=O)[O-])cc2)[C@H]1c1ccc(CO)cc1 please. -1.24

Report composite z-score for COC(=O)C1=CC(CCCO)=CC(c2cccs2)N(Cc2cccc(OC(F)(F)F)c2)C=C1C(=O)OC (stereo not drawn) please. -3.05

Report composite z-score for C#Cc1cc2ccccc2oc1=O please. -0.748

Report composite z-score for COC(=O)c1c(CC[C@@H](CO)NC(=O)N2CCC[C@H]2Cn2cc(C3(O)CCCCC3)nn2)oc(C(C)=O)c1C(=O)OC please. -0.0366

Report composite z-score for [N-]=[N+]=Nc1ccccc1[C@H]1OC(c2ccc(OCCCO)cc2)=N[C@@]1(Cc1ccccc1)C(=O)NCCN1CCOCC1 please. 0.73

Report composite z-score for COC(=O)[C@@]1(Cc2ccc(OC)cc2)[C@H]2c3cc(C(=O)N(C)C)n(Cc4ccc(C)o4)c3C[C@H]2CN1C(=O)c1ccccc1 please. 0.376

Origin of measurements: PubChem BioAssay
